Target: Recombinant human hepsin (4776-SE-010, R&D Systems), activated (human, UniProt P05981)
Experiment: fluorogenic inhibition assay
Non-standard residues stand in square brackets, D forms with d. No end group written: not given here. *: point of attachment. kbt = C-terminal ketobenzothiazole, c1ccc2sc(*)nc2c1; Kbt = ketobenzothiazole, c1ccc2sc(*)nc2c1; Fmoc = O=C(OCC1c2ccccc2-c2ccccc21)*
Recorded Ki values for a group of binders are listed next.

binder	Ki [nM]
Ac-KRLR-Kbt (not fully specified) [Ac-KRLR(SEQ ID NO: 8)-Kbt-5-COOH]	0.37
H-[dW]-Phe-Arg-kbt [H-dWFR-kbt]	370
Fmoc-Arg-Arg-kbt [Fmoc-RR-kbt]	99.9
H-Arg-Leu-Arg-kbt [H-RLR-kbt]	0.5
Fmoc-Asn-Arg-kbt [Fmoc-NR-kbt]	1.92
Ac-KRLR (not fully specified (C-terminus); also: benzyl COOH at 3 or 4 (tables differ)) [Ac-KRLR(SEQ ID NO: 8)-kbt-Benzyl-3-COOH]	0.3
Ac-KRLR-{Kbt-Benzyl‑4‑COOMe} [Ac-KRLR(SEQ ID NO: 8)-kbt-Benzyl-4-COOMe]	0.26
Fmoc-Trp-Arg-kbt [Fmoc-WR-kbt]	411
Fmoc-Tyr-Arg-kbt [Fmoc-YR-kbt]	217
Ac-SKLR-{kbt‑6‑CO-Val-NH2} [Ac-SKLR(SEQ ID NO: 10)-Kbt-Val-NH2]	0.19
Ac-WLFR-kbt (SMILES CC(=O)N[C@@H](Cc1c[nH]c2ccccc12)C(=O)N[C@@H](CC(C)C)C(=O)N[C@@H](Cc1ccccc1)C(=O)N[C@@H](CCCNC(=N)N)C(=O)c1nc2ccccc2s1) [Ac-WLFR(SEQ ID NO: 20)-Kbt]	0.347
Ac-SKLR-kbt (SMILES CC(=O)N[C@@H](CO)C(=O)N[C@@H](CCCCN)C(=O)N[C@@H](CC(C)C)C(=O)N[C@@H](CCCNC(=N)N)C(=O)c1nc2ccccc2s1) [Ac-SKLR(SEQ ID NO: 10)-Kbt]	0.16

These data points were gathered from patent US20180066015A1.
